assayed_system: protein (GFP & Nanobody)
method_notes: Fluorescence titration, VEPEP-3/cargo binding: protein
conditions: cargo: protein (GFP & Nanobody)
reported_endpoint: Kd (µM)

{"substance": "X1KWWERWWREWPRKRK [VEPEP-3b]", "reported": 0.5}
{"substance": "X1KWFERWFREWPRKRR [VEPEP-3a]", "reported": 1}
{"substance": "X1RWWEKWWTRWPRKRK [VEPEP-3c]", "reported": 0.2}
{"substance": "X1RWYEKWYTEFPRRRR [VEPEP-3d]", "reported": 0.1}

* * *

Tested on: MCF7
method_notes: Inhibition of cancer cell proliferation by delivered small molecule drugs
Assay type: cell-based
conditions: Homo sapiens, free drug, read-out: Free drug IC50
reported_endpoint: IC50 (µM)

{"compound": "COc1cccc2c1C(=O)c1c(O)c3c(c(O)c1C2=O)C[C@@](O)(C(=O)CO)C[C@@H]3O[C@H]1C[C@H](N)[C@H](O)[C@H](C)O1 [Doxo, doxorubicin]", "unit": "µM", "reported": 7}
